Sourced from ChEMBL document CHEMBL1777691

test summary: Inhibition of Geotrichum candidum Histidinol dehydrogenase
Form field: IC50 (one value per entry).
Please don't drop the unit; write it after the number.

# count of solved cases: 7
compound | IC50
COC(=O)NC(Cc1cncn1C)C(=O)OC (stereo not drawn) | 10.6 µM
COC(=O)C1Cc2c(Cl)ncn2C(=O)N1 (stereo not drawn) | 122 µM
O=C(O)C1Cc2c(I)nc(I)n2C(=O)N1 (stereo not drawn) | 58.7 µM
COC(=O)CCc1c[nH]cn1 | 5.2 µM
CCOC(=O)NC(Cc1cn(C)cn1)C(=O)OC (stereo not drawn) | 29.3 µM
O=C1NCCc2cncn21 | 24.2 µM
O=C(O)CCc1c[nH]cn1 | 3.17 µM

Q: Name the reported IC50 value associated with the compound O=C(O)C1Cc2cncn2C(=O)N1 (stereo not drawn)
A: 3.56 µM
